// data source = patent US20250161260A1

System: LGKC1 cells
Assay: Cell proliferation by MTT assay, LGKC1
Format: cell-based, murine
Conditions: LGKC1, 48 h

- Compound: "CC(C)=CCC/C(C)=C/CC/C(C)=C/CC[C@]1(C)CCc2cc(O)cc(C)c2O1 [DT3, δ-tocotrienol]"
  Quantity unit: "µM"
  IC50: 25.3
